- System: PDC-DUC18828
- assay: cell viability of compound + 1 nM pemigatinib relative to pemigatinib-only (DMSO) wells (fraction); higher = less growth inhibition
- experimental_parameters: first compound 1 µM; pemigatinib concentration 1 nM; 72 h
Over roughly 1,900 compounds, “cell viability of compound + 1 nM pemigatinib relative to pemigatinib-only (DMSO) wells” has its median near 0.95 nM; the lowest 2% begin near 0.22 nM. What follows is part of a selection rich in the lowest values, with near analogues and random picks from the rest.
measurement_type: cell viability
Could you respond with only the numeric value?

CC(C)N(C[C@H]1O[C@@H](n2cnc3c(N)ncnc32)[C@H](O)[C@@H]1O)[C@H]1C[C@@H](CCc2nc3cc(C(C)(C)C)ccc3[nH]2)C1 + CCN1C(=O)N(c2c(F)c(OC)cc(OC)c2F)Cc2cnc3[nH]c(CN4CCOCC4)cc3c21 ... 0.91

# input for lookup
Challenge: Could you please provide reported cell viability for CC(C=CC(=O)NO)=CC(C)C(=O)c1ccc(N(C)C)cc1 (configuration not stated) [Trichostatin A (TSA)] + CCN1C(=O)N(c2c(F)c(OC)cc(OC)c2F)Cc2cnc3[nH]c(CN4CCOCC4)cc3c21 ? Thanks!
Response given: 0.0931

====

- System: PDC-DUC18828
- assay: cell viability of compound + 1 nM pemigatinib relative to pemigatinib-only (DMSO) wells (fraction); higher = less growth inhibition
- experimental_parameters: first compound 1 µM; pemigatinib concentration 1 nM; 72 h
In all, about 1,900 compounds were measured (“cell viability of compound + 1 nM pemigatinib relative to pemigatinib-only (DMSO) wells”: median about 0.95 nM, lowest 2% from about 0.22 nM on). Shown is part of a subset that was picked to be rich in the lowest values.
Each record is given Yes if its reported cell viability is strictly below 0.9. Records at or above 0.9 are given No.

CC1(C)CC[C@]2(NC(=O)C(C)(F)F)CC[C@]3(C)[C@H](C(=O)C=C4[C@@]5(C)C=C(C#N)C(=O)C(C)(C)[C@@H]5CC[C@]43C)[C@@H]2C1 [Omaveloxolone (RTA-408)] + CCN1C(=O)N(c2c(F)c(OC)cc(OC)c2F)Cc2cnc3[nH]c(CN4CCOCC4)cc3c21 [pemigatinib] ... Yes
CC(C)C[C@H](NC(=O)CNC(=O)c1cc(Cl)ccc1Cl)B(O)O + CCN1C(=O)N(c2c(F)c(OC)cc(OC)c2F)Cc2cnc3[nH]c(CN4CCOCC4)cc3c21 [pemigatinib] ... Yes

Challenge: Criterion: cell viability strictly below 0.9. Is it met by CCCCCCCc1ccc(CCc2cccc(O)c2C(=O)O)cc1 + CCN1C(=O)N(c2c(F)c(OC)cc(OC)c2F)Cc2cnc3[nH]c(CN4CCOCC4)cc3c21 [pemigatinib] ?
Response given: No

Challenge: Problem: For the compound FC(F)c1nc2ccccc2n1-c1nc(N2CCOCC2)nc(N2CCOCC2)n1 + CCN1C(=O)N(c2c(F)c(OC)cc(OC)c2F)Cc2cnc3[nH]c(CN4CCOCC4)cc3c21 [pemigatinib] , is cell viability under 0.9?
Response given: No

====

- Tested on: PDC-DUC18828
- assay: cell viability of compound + 1 nM pemigatinib relative to pemigatinib-only (DMSO) wells (fraction); higher = less growth inhibition
- experimental_parameters: first compound 1 µM; pemigatinib concentration 1 nM; 72 h
In all, about 1,900 compounds were measured (“cell viability of compound + 1 nM pemigatinib relative to pemigatinib-only (DMSO) wells”: median about 0.95 nM, lowest 2% from about 0.22 nM on). Many of the other results were omitted from the sample, so the lowest values are more common in it than they were.
measurement_type: cell viability
Please give only the number in your answer, with no unit.

Past entries and their recorded results:
O=C(O)c1ccc(O)c2ncccc12 + CCN1C(=O)N(c2c(F)c(OC)cc(OC)c2F)Cc2cnc3[nH]c(CN4CCOCC4)cc3c21 ... 1.07
COc1ccc(/C=C/C(=O)C2(C(=O)/C=C/c3ccc(OC)c(OC)c3)CCCCC2)cc1OC + CCN1C(=O)N(c2c(F)c(OC)cc(OC)c2F)Cc2cnc3[nH]c(CN4CCOCC4)cc3c21 ... 0.852
Cc1c(C(=O)NN2CCCCC2)nn(-c2ccc(Cl)cc2Cl)c1-c1ccc(I)cc1 + CCN1C(=O)N(c2c(F)c(OC)cc(OC)c2F)Cc2cnc3[nH]c(CN4CCOCC4)cc3c21 ... 0.926
CN1CCC(Nc2nc(Nc3ccc(Oc4ccccc4)cc3)c3c(=O)[nH]cc(Br)c3n2)CC1 + CCN1C(=O)N(c2c(F)c(OC)cc(OC)c2F)Cc2cnc3[nH]c(CN4CCOCC4)cc3c21 ... 0.783

Challenge: Supply recorded cell viability for O=C(Nc1ccccc1)N1CCN(c2nc(-c3ccccc3)ns2)CC1 + CCN1C(=O)N(c2c(F)c(OC)cc(OC)c2F)Cc2cnc3[nH]c(CN4CCOCC4)cc3c21 here.
Response given: 0.934

====

- System: PDC-DUC18828
- assay: cell viability of compound + 1 nM pemigatinib relative to pemigatinib-only (DMSO) wells (fraction); higher = less growth inhibition
- experimental_parameters: first compound 1 µM; pemigatinib concentration 1 nM; 72 h
Where a name gives a salt, the structure may show the parent alone. Whole data set: some 1,900 compounds, median “cell viability of compound + 1 nM pemigatinib relative to pemigatinib-only (DMSO) wells” near 0.95 nM, cut for the lowest 2% near 0.22 nM. The sample as a whole holds a higher share of the lowest values than the screen did.
cell viability values, listed per item
Form: value (number only, do not type unit).

COc1ccc(-n2c(SCCCN3C(=O)c4cccc5cccc(c45)C3=O)nnc2-c2ccncc2)cc1 + CCN1C(=O)N(c2c(F)c(OC)cc(OC)c2F)Cc2cnc3[nH]c(CN4CCOCC4)cc3c21 ... 0.799
C=CC(=O)Nc1cccc(C)c1Nc1ncc2cc(-c3c(Cl)c(OC)cc(OC)c3Cl)ccc2n1 + CCN1C(=O)N(c2c(F)c(OC)cc(OC)c2F)Cc2cnc3[nH]c(CN4CCOCC4)cc3c21 ... 0.8
CCOC(=O)c1cnc2ccc(-c3cncc(NS(=O)(=O)c4ccccc4)c3)cn12 + CCN1C(=O)N(c2c(F)c(OC)cc(OC)c2F)Cc2cnc3[nH]c(CN4CCOCC4)cc3c21 ... 0.407
COc1cccc2c1C(=O)c1c(O)c3c(c(O)c1C2=O)C[C@@](O)(C(C)=O)C[C@@H]3O[C@H]1C[C@H](N)[C@H](O)[C@H](C)O1 [Daunorubicin HCl] + CCN1C(=O)N(c2c(F)c(OC)cc(OC)c2F)Cc2cnc3[nH]c(CN4CCOCC4)cc3c21 ... 0.0984
CC(C)[C@H]1C(=O)N[C@@H](CCCNC(=N)N)C(=O)NCC(=O)N[C@@H](CC(=O)O)C(=O)N[C@H](Cc2ccccc2)C(=O)N1C [Cilengitide] + CCN1C(=O)N(c2c(F)c(OC)cc(OC)c2F)Cc2cnc3[nH]c(CN4CCOCC4)cc3c21 ... 0.933
O=C1CCc2c(ccc3ccccc23)O1 [Splitomicin] + CCN1C(=O)N(c2c(F)c(OC)cc(OC)c2F)Cc2cnc3[nH]c(CN4CCOCC4)cc3c21 ... 0.922

Challenge: Give the reported value of cell viability for this record: Nc1ncnc2c1c(-c1cccc(OCc3ccccc3)c1)cn2C1CC(CN2CCCC2)C1 (centres undefined) + CCN1C(=O)N(c2c(F)c(OC)cc(OC)c2F)Cc2cnc3[nH]c(CN4CCOCC4)cc3c21
Response given: 0.911

Challenge: Provide one value: measured cell viability of COc1ccc(-c2nc(N3CCOCC3)c3sc(CN(C)c4ncc(C(=O)NO)cn4)cc3n2)cn1 + CCN1C(=O)N(c2c(F)c(OC)cc(OC)c2F)Cc2cnc3[nH]c(CN4CCOCC4)cc3c21
Response given: 0.0302

Challenge: Respond only with cell viability recorded for C/C(=N\NC(=S)N1CCC1)c1ccccn1 + CCN1C(=O)N(c2c(F)c(OC)cc(OC)c2F)Cc2cnc3[nH]c(CN4CCOCC4)cc3c21
Response given: 0.323

====

- System: PDC-DUC18828
- assay: cell viability of compound + 1 nM pemigatinib relative to pemigatinib-only (DMSO) wells (fraction); PDC-DUC18828 is a patient-derived cholangiocarcinoma cell line; higher = less growth inhibition
- experimental_parameters: first compound 1 µM; pemigatinib concentration 1 nM; 72 h
Over roughly 1,900 compounds, “cell viability of compound + 1 nM pemigatinib relative to pemigatinib-only (DMSO) wells” has its median near 0.95 nM; the lowest 2% begin near 0.22 nM. What follows is part of a selection rich in the lowest values, with near analogues and random picks from the rest.
measurement_type: cell viability
Answer with the value's number alone.

Some compounds with known cell viability results, for comparison:
C=CC(=O)Nc1cccc(Nc2nc(Nc3ccc(OCCOC)cc3)ncc2F)c1 + CCN1C(=O)N(c2c(F)c(OC)cc(OC)c2F)Cc2cnc3[nH]c(CN4CCOCC4)cc3c21 [pemigatinib] ... 0.715
COc1cc([C@@H]2c3cc4c(cc3[C@@H](O[C@@H]3O[C@@H]5CO[C@@H](c6cccs6)O[C@H]5[C@H](O)[C@H]3O)[C@H]3COC(=O)[C@H]23)OCO4)cc(OC)c1O [Teniposide] + CCN1C(=O)N(c2c(F)c(OC)cc(OC)c2F)Cc2cnc3[nH]c(CN4CCOCC4)cc3c21 [pemigatinib] ... 0.194

Challenge: Please report cell viability with PDC-DUC18828 for item CN1CCN(S(=O)(=O)c2ccc(-c3cnc(N)c(C(=O)Nc4cccnc4)n3)cc2)CC1 + CCN1C(=O)N(c2c(F)c(OC)cc(OC)c2F)Cc2cnc3[nH]c(CN4CCOCC4)cc3c21 [pemigatinib] .
Response given: 1.03

Challenge: Report value only: cell viability, PDC-DUC18828, CCCC[C@@H](C=O)NC(=O)[C@H](CC(C)C)NC(=O)OCc1ccccc1 [Calpeptin] + CCN1C(=O)N(c2c(F)c(OC)cc(OC)c2F)Cc2cnc3[nH]c(CN4CCOCC4)cc3c21 [pemigatinib]
Response given: 1.01
